FYI, the data here is from the supplement of paper PMC10126150.

- Tested on: ATP;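 further: ATP exposure 15 min at 22 °C before imaging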
- measurement_notes: switch fluorescence ratio, 500 uM ATP over buffer (Cy3 cluster intensity, sum of 5 cycles each) (fold (ratio)); higher = stronger signal-on switching upon ATP binding; sequences stand for … in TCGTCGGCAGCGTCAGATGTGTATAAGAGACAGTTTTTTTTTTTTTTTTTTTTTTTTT…TC
- conditions: aptamer strand: ATP DNA aptamer (quencher-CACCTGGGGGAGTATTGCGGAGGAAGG + anchor), 100 nM annealed; ATP concentration: 500 uM
Cut-off 1 on switch fluorescence ratio, inclusive. At or above means Satisfied; below means Not satisfied.

q: switch fluorescence ratio >= 1 for `GTTAAAAAAA` ?
a: Not satisfied

q: Could you please find out whether `GTTCATCCAG` has switch fluorescence ratio that meets 1 or exceeds it?
a: Satisfied

q: Please tell me: is the sequence `ACAGGGGAGA` at or over 1 in terms of switch fluorescence ratio?
a: Satisfied

q: Tell me whether switch fluorescence ratio is at least 1 here: `TTTTTCGTCA`
a: Satisfied

q: Is the recorded value of switch fluorescence ratio equal to or greater than 1 for this sequence? `CATTTATGCC`
a: Satisfied

q: # bool: switch fluorescence ratio of `AAGGCGGATT` >= 1
a: Satisfied

q: hey, is switch fluorescence ratio for this one >= 1? `CACAGCAGTC`
a: Satisfied

q: Hello, I need to know if `TTGCAGGGTG` has measured switch fluorescence ratio not below 1. Thanks!
a: Satisfied

q: Test whether the sequence `TTAAAGGCCC` records switch fluorescence ratio of 1 or higher.
a: Satisfied

q: Reported switch fluorescence ratio at or above 1? `GCATTAAAAT`
a: Not satisfied

q: Quick check: does `CAACATTTTC` have switch fluorescence ratio greater than or equal to 1?
a: Satisfied

q: Answer whether switch fluorescence ratio of `CCAAAGTATA` is greater than or equal to 1.
a: Satisfied

q: Given `GGGCTCATGG` , state whether its switch fluorescence ratio is at least 1.
a: Satisfied
